Procedure text: Cytotoxicity against human Ava5 cells
Type: cell-based
Please assign n whenever CC50 is at or above 20 µM, and y whenever it is below.

## Task Lab log: compare recorded CC50 with 20 µM; is it strictly lower for "NC(=S)Nc1ccc(OCCCCCc2ccccc2)cc1" ?
## Result y

## Task Lab log: compare recorded CC50 with 20 µM; is it strictly lower for "NC(=S)Nc1cccc(OCCCCCCCc2ccccc2)c1" ?
## Result n

## Task Lab log: compare recorded CC50 with 20 µM; is it strictly lower for "NC(=S)Nc1cccc(OCCCCCOc2ccc(-n3cccc3)cc2)c1" ?
## Result n

## Task Lab log: compare recorded CC50 with 20 µM; is it strictly lower for "NC(=S)Nc1cccc(OCCCCCOc2cccc(Cc3ccccc3)c2)c1" ?
## Result y

## Task Lab log: compare recorded CC50 with 20 µM; is it strictly lower for "NC(=S)Nc1cccc(OCCCCCOc2cccc(Nc3ccccc3)c2)c1" ?
## Result y

## Task Lab log: compare recorded CC50 with 20 µM; is it strictly lower for "NC(=S)Nc1cccc(OCCCCCOc2ccccc2-c2ccccc2)c1" ?
## Result y

## Task Lab log: compare recorded CC50 with 20 µM; is it strictly lower for "NC(=S)Nc1cccc(OCCCCCOc2cccc3cnccc23)c1" ?
## Result n

## Task Lab log: compare recorded CC50 with 20 µM; is it strictly lower for "COc1ccc(OCCCCCOc2cccc(NC(N)=S)c2)cc1" ?
## Result n

## Task Lab log: compare recorded CC50 with 20 µM; is it strictly lower for "S=C(NCc1ccccc1)Nc1cccc(OCCCCCc2ccccc2)c1" ?
## Result n

## Task Lab log: compare recorded CC50 with 20 µM; is it strictly lower for "NC(=S)Nc1cccc(OCCCCCOc2ccc(F)cc2)c1" ?
## Result y

## Task Lab log: compare recorded CC50 with 20 µM; is it strictly lower for "NC(=S)Nc1cccc(OCCCc2ccccc2)c1" ?
## Result n

## Task Lab log: compare recorded CC50 with 20 µM; is it strictly lower for "NC(=S)Nc1cccc(OCCCCCOc2cccc3ncccc23)c1" ?
## Result y

## Task Lab log: compare recorded CC50 with 20 µM; is it strictly lower for "NC(=S)Nc1cccc(OCCCCCOc2ccccn2)c1" ?
## Result n

## Task Lab log: compare recorded CC50 with 20 µM; is it strictly lower for CC(CCOc1ccccc1)CCOc1cccc(NC(N)=S)c1 (stereo not given) ?
## Result n

## Task Lab log: compare recorded CC50 with 20 µM; is it strictly lower for "CCCNC(=S)Nc1cccc(OCCCCCc2ccccc2)c1" ?
## Result n

## Task Lab log: compare recorded CC50 with 20 µM; is it strictly lower for "NC(=S)Nc1cccc(OCCCCCOc2cccc3ccccc23)c1" ?
## Result y

## Task Lab log: compare recorded CC50 with 20 µM; is it strictly lower for "NC(=S)Nc1cccc(OCc2ccccc2)c1" ?
## Result n

## Task Lab log: compare recorded CC50 with 20 µM; is it strictly lower for "NC(=S)Nc1cccc(OCCCCCCc2ccccc2)c1" ?
## Result n

## Task Lab log: compare recorded CC50 with 20 µM; is it strictly lower for "NC(=S)Nc1cccc(OCCCCCOc2ccc(N3CCCC3)cc2)c1" ?
## Result y

## Task Lab log: compare recorded CC50 with 20 µM; is it strictly lower for "CCN(CC)c1ccc(OCCCCCOc2cccc(NC(N)=S)c2)cc1" ?
## Result n

## Task Lab log: compare recorded CC50 with 20 µM; is it strictly lower for "NC(=S)Nc1cccc(OCCCCCOc2ccc(-c3ccco3)cc2)c1" ?
## Result y

## Task Lab log: compare recorded CC50 with 20 µM; is it strictly lower for "NC(=S)Nc1cccc(OCCCCCOc2cccc(Oc3ccccc3)c2)c1" ?
## Result y

## Task Lab log: compare recorded CC50 with 20 µM; is it strictly lower for "CNC(=S)Nc1cccc(OCCCCCc2ccccc2)c1" ?
## Result n

## Task Lab log: compare recorded CC50 with 20 µM; is it strictly lower for "NC(=S)Nc1cccc(OCCCCCOc2ccnc3ccccc23)c1" ?
## Result n

## Task Lab log: compare recorded CC50 with 20 µM; is it strictly lower for "NC(=S)Nc1cccc(OCCc2ccccc2)c1" ?
## Result n
